- TARGET_DESC: T1, human ASGR-1 mutant construct H203 (human, UniProt P07306 1-291)
- T1 construct: Arg/Glu scanning: non-arginine residues were changed to arginine; Transiently expressed on CHO-S cells
- T1 sequence: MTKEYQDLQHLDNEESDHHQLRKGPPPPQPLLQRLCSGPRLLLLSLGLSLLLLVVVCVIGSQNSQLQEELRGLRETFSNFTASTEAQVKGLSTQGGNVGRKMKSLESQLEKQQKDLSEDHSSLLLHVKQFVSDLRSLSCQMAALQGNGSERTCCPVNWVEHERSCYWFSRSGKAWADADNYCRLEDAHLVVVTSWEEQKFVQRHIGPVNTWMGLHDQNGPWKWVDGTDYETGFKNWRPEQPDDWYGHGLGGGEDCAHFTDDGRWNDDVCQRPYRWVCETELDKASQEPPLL
- MEASUREMENT_DESCRIPTION: FACS, transfected CHO-S cells, mAb 5 ug/ml
Provide the recorded FACS Binding Geomean for the entries that follow.
Number only, please.

What does the record list as FACS Binding Geomean for 191G1 (antibody, V domains shown, mAb) VH: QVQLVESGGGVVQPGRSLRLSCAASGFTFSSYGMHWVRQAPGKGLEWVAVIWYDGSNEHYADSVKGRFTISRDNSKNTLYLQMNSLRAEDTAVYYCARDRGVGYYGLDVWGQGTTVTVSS VL: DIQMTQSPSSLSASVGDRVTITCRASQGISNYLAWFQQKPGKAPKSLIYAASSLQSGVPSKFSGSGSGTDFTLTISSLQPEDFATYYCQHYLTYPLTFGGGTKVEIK ?
10900

What does the record list as FACS Binding Geomean for 5E5 (antibody, V domains shown, mAb) VH: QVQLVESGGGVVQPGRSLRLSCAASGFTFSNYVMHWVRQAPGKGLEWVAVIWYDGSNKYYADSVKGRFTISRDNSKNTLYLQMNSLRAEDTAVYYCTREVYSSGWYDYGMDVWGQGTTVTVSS VL: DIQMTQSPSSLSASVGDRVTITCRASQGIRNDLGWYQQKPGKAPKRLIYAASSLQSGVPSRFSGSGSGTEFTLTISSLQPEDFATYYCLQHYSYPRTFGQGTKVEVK ?
12600

What does the record list as FACS Binding Geomean for 7E11 (antibody, V domains shown, mAb) VH: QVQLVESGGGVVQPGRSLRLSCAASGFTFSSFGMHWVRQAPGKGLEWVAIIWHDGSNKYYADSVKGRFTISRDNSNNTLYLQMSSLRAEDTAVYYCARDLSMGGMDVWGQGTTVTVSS VL: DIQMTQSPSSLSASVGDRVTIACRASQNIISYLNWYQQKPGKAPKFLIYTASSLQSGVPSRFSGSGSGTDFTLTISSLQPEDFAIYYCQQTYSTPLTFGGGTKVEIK ?
14700

FYI, the data here is from patent US20190248902A1.
